Record form. Attribute: koff. Fill in for each entry.
- Study system: T1, Human IL-11 (human, UniProt P20809 22-199)
- T1 construct: Recombinant human IL-11 (GenScript Cat. No. Z03108-1) or IL-11 secreted by human cells; the mature form is said to have 178 residues; also called recombinant human IL-11; endogenously produced IL-11
- T1 sequence: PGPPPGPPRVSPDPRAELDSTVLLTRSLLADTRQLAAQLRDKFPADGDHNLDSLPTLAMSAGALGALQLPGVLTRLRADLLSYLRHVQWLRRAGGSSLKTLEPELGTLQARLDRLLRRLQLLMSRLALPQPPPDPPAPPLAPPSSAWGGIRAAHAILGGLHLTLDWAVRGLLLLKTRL
- Assay explanation: SPR (BIAcore T200) single cycle kinetics, human IL-11 on CM5 chip, 1:1 model
- Text: HEK293 EBNDA cells were transfected with vectors encoding scFv corresponding to YU100-H01, 01A, 01G, 01I, 01L, 01Q, 01S, 01T, 01V, YU100-G08, 02A, 02G, 02I, 02L, 02Q, 02S, 02T or 02V.
Give the value, in units of s⁻¹, as a plain number.

*Q* Tell me the measured koff of 02I (antibody, IgG1, V domains shown, C91I variant of the YU100-G08 VL) VH: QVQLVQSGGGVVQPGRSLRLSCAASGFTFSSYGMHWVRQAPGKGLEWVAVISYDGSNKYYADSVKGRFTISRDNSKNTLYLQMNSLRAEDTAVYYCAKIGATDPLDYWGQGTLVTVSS VL: QSALTQPRSVSGSPGQSVTLSCTGTSSDVGGYNYVSWYQHYPGKAPKLMIFDVNERSSGVPDRFSGSKSGNTASLTISGLQAEDEADYYCISYAGRYTWMFGGGTKVTVLG , please.
*A* 0.00238

*Q* Need koff of 02S (antibody, IgG1, V domains shown, C91S variant of the YU100-G08 VL) VH: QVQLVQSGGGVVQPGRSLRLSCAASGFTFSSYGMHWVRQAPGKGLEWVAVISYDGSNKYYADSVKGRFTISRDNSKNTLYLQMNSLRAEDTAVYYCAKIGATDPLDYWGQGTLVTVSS VL: QSALTQPRSVSGSPGQSVTLSCTGTSSDVGGYNYVSWYQHYPGKAPKLMIFDVNERSSGVPDRFSGSKSGNTASLTISGLQAEDEADYYCSSYAGRYTWMFGGGTKVTVLG , thanks.
*A* 0.00639

*Q* For 02Q (antibody, IgG1, V domains shown, C91Q variant of the YU100-G08 VL) VH: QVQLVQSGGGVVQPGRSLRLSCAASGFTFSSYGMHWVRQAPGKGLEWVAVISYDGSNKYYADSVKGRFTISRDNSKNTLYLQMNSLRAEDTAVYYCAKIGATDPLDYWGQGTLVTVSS VL: QSALTQPRSVSGSPGQSVTLSCTGTSSDVGGYNYVSWYQHYPGKAPKLMIFDVNERSSGVPDRFSGSKSGNTASLTISGLQAEDEADYYCQSYAGRYTWMFGGGTKVTVLG , what is its reported koff?
*A* 0.00249

*Q* Fill in: koff of 02L (antibody, IgG1, V domains shown, C91L variant of the YU100-G08 VL) VH: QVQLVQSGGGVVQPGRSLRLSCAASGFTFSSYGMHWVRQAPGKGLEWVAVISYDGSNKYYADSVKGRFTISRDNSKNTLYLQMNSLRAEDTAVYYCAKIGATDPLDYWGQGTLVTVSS VL: QSALTQPRSVSGSPGQSVTLSCTGTSSDVGGYNYVSWYQHYPGKAPKLMIFDVNERSSGVPDRFSGSKSGNTASLTISGLQAEDEADYYCLSYAGRYTWMFGGGTKVTVLG is ___
*A* 0.00202
